Attribution: paper PMC10364322

System: hiPSC-CMs (iCell-Cardiomyocytes^2)
Conditions: 3 µM; 24h
observed property: EAD, number of observations/total well numbers

Previously resolved entries follow.
Tested on hiPSC-CMs (iCell-Cardiomyocytes^2): COc1nc(N)nc2c1ncn2[C@@H]1O[C@H](COP(=O)(N[C@@H](C)C(=O)OCC(C)(C)C)Oc2cccc3ccccc23)[C@@H](O)[C@@]1(C)O (stereo partly drawn) . Observed EAD, number of observations/total well numbers: 0/5

Tested on hiPSC-CMs (iCell-Cardiomyocytes^2): `CC(C)(Sc1cc(C(C)(C)C)c(O)c(C(C)(C)C)c1)Sc1cc(C(C)(C)C)c(O)c(C(C)(C)C)c1` . Observed EAD, number of observations/total well numbers: 0/5

Tested on hiPSC-CMs (iCell-Cardiomyocytes^2): `C#Cc1cccc(Nc2ncnc3cc(OCCOC)c(OCCOC)cc23)c1` . Observed EAD, number of observations/total well numbers: 0/5

Tested on hiPSC-CMs (iCell-Cardiomyocytes^2): `COc1cc2c(Nc3ccc(Br)cc3F)ncnc2cc1OCC1CCN(C)CC1` . Observed EAD, number of observations/total well numbers: 0/5

Tested on hiPSC-CMs (iCell-Cardiomyocytes^2): `COc1cccc2c1C(=O)c1c(O)c3c(c(O)c1C2=O)C[C@@](O)(C(=O)CO)C[C@@H]3O[C@H]1C[C@H](N)[C@H](O)[C@H](C)O1` . Observed EAD, number of observations/total well numbers: 0/5

Lab note: next compound to report on.
Tested on hiPSC-CMs (iCell-Cardiomyocytes^2): `N=C(N)c1ccc(OCCCCCOc2ccc(C(=N)N)cc2)cc1` . Observed EAD, number of observations/total well numbers: 0/6

----------
Test system: hiPSC-CMs (iCell-Cardiomyocytes^2)
Conditions: 0.1 µM, 96h
observed property: BR (beating rate), % change from baseline (%)
Number only, in %; omit the unit.

Previously resolved entries follow.
The recorded BR (beating rate), % change from baseline for entry `N=C(N)c1ccc(OCCCCCOc2ccc(C(=N)N)cc2)cc1` equals -13

The recorded BR (beating rate), % change from baseline for entry O=C(O)COCCN1CCN(C(c2ccccc2)c2ccc(Cl)cc2)CC1 (centres unmarked) equals -5

The recorded BR (beating rate), % change from baseline for entry `COc1cccc2c1C(=O)c1c(O)c3c(c(O)c1C2=O)C[C@@](O)(C(=O)CO)C[C@@H]3O[C@H]1C[C@H](N)[C@H](O)[C@H](C)O1` equals -7

The recorded BR (beating rate), % change from baseline for entry `CCN(CC)CCNC(=O)c1c(C)[nH]c(/C=C2\C(=O)Nc3ccc(F)cc32)c1C` equals -24

Further cases:
The recorded BR (beating rate), % change from baseline for entry `COc1cc2c(Nc3ccc(Br)cc3F)ncnc2cc1OCC1CCN(C)CC1` equals -19

----------
Listed here are molecules together with their documented Imp (impedance), % change from baseline.
System: hiPSC-CMs (iCell-Cardiomyocytes^2)
Test: MEA impedance (cytotoxicity readout) in hiPSC-CMs
Conditions: 1 µM, 2h
Please format your answer as a value with the unit trailing.

The recorded Imp (impedance), % change from baseline for entry `CCN(CC)CCNC(=O)c1c(C)[nH]c(/C=C2\C(=O)Nc3ccc(F)cc32)c1C` equals 12±7%

The recorded Imp (impedance), % change from baseline for entry `N=C(N)c1ccc(OCCCCCOc2ccc(C(=N)N)cc2)cc1` equals 5±2%

The recorded Imp (impedance), % change from baseline for entry COc1nc(N)nc2c1ncn2[C@@H]1O[C@H](COP(=O)(N[C@@H](C)C(=O)OCC(C)(C)C)Oc2cccc3ccccc23)[C@@H](O)[C@@]1(C)O (some centres unmarked) equals -1±2%

The recorded Imp (impedance), % change from baseline for entry `C[C@H](CS)C(=O)N1CCC[C@H]1C(=O)O` equals 7±5%

The recorded Imp (impedance), % change from baseline for entry `C#Cc1cccc(Nc2ncnc3cc(OCCOC)c(OCCOC)cc23)c1` equals 1±2%

The recorded Imp (impedance), % change from baseline for entry `COc1cc2c(Nc3ccc(Br)cc3F)ncnc2cc1OCC1CCN(C)CC1` equals -3±2%

The recorded Imp (impedance), % change from baseline for entry `COc1cccc2c1C(=O)c1c(O)c3c(c(O)c1C2=O)C[C@@](O)(C(=O)CO)C[C@@H]3O[C@H]1C[C@H](N)[C@H](O)[C@H](C)O1` equals -1±2%

The recorded Imp (impedance), % change from baseline for entry `Cc1cn(-c2cc(NC(=O)c3ccc(C)c(Nc4nccc(-c5cccnc5)n4)c3)cc(C(F)(F)F)c2)cn1` equals 4±7%

Further cases:
The recorded Imp (impedance), % change from baseline for entry `CC(C)(Sc1cc(C(C)(C)C)c(O)c(C(C)(C)C)c1)Sc1cc(C(C)(C)C)c(O)c(C(C)(C)C)c1` equals -1±2%

The recorded Imp (impedance), % change from baseline for entry `CC1(C)S[C@@H]2[C@H](NC(=O)[C@H](N)c3ccc(O)cc3)C(=O)N2[C@H]1C(=O)O` equals 2±4%

The recorded Imp (impedance), % change from baseline for entry O=C(O)COCCN1CCN(C(c2ccccc2)c2ccc(Cl)cc2)CC1 (centres unmarked) equals -4±2%
